Tested on: BV-2
experiment-summary: Inhibition of lipopolysaccharide-induced TNFalpha production in mouse BV2 cells pre-incubated for 1 hr before LPS stimulation for 24 hrs by ELISA
Assay type: functional, cell-based
outcome-measure: IC50 (nM)

[
  {
    "molecule": "C[C@@H]1CCC=C2C(=O)C=C[C@@H](O)[C@]21C",
    "IC50 (nM)": 2110
  },
  {
    "molecule": "C[C@@H]1C[C@H](O)C=C2C(=O)C=C[C@@H](O)[C@]21C [NARCHINOL B]",
    "IC50 (nM)": 1700
  }
]

###

Tested on: BV-2
experiment-summary: Inhibition of lipopolysaccharide-induced nitric oxide production in mouse BV2 cells assessed as reduction in nitrite level by Griess reaction based ELISA
Format: functional, cell-based
pIC50: −log10 of the molar value.
Catalogue of pIC50 readings, one per entry.

Examples with their reported pIC50 follow.
[
  {
    "compound": "C=C1[C@@H]2O[C@@H](OC)[C@H]3[C@@H]1C[C@H](O)[C@]3(C)O2",
    "result": "< 4.22"
  },
  {
    "compound": "CC(C)C1CC[C@@](C)(O)[C@@H]2CC[C@](C)(O)[C@H]2[C@@H]1O (stereo partly drawn)",
    "result": "< 4.22"
  }
]

Now for the compound whose pIC50 we want.
**Query** For CC(C)[C@]1(O)CC[C@@]2(C)[C@H](O)CC[C@](C)(O)[C@@H]2C1 , what is its reported pIC50?
**Result** < 4.22
